Measured values drawn from patent US20260201064A1 for this set.

target_of_assay: T1, recombinant human ASM protein (human, UniProt P17405 47-630)
T1 construct: Recombinant human ASM in solution; also called acid sphingomyelinase (ASM) protein
T1 sequence: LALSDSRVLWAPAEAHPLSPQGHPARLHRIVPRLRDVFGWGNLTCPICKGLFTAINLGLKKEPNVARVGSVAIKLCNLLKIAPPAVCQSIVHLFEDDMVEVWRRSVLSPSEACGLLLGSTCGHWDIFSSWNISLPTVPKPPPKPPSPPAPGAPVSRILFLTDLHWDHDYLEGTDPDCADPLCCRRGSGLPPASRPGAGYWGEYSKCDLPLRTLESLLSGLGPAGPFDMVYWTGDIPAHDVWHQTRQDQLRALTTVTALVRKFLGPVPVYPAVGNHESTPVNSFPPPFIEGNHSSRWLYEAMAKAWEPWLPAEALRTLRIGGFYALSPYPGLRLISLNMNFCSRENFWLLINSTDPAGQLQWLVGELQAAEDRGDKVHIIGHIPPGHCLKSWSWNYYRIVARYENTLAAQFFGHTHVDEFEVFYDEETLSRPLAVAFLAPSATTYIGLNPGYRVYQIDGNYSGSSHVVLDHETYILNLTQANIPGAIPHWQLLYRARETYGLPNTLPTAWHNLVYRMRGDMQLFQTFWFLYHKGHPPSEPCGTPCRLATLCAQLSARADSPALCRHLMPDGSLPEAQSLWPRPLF
protocol_text: BLI (Octet), antibody on AHC sensor
quantity_measured: Kd (nM)

binder	quantity_measured	reported_value
#9104a-B6 (antibody, human IgG4 S228P, lambda, V domains shown, VH of #9104v-H27 with VL of #9104v-L21; full-length IgG, lambda) VH: EVQLLESGGGLVQPGGSLRLSCAASGFTFSNYYMSWVRQAPGKGLEWVSGTYYDSGYVYYADSVKGRFTISRDNSKNTLYLQMNSLRAEDTAVYYCARDTPGFDYWGQGTLVTVSS VL: QSVLTQPPSASGTPGQRVTISCTGSSSNIGNNAVNWYQQLPGTAPKLLIYYDMFRPNGVPDRFSGSKSGTSASLAISGLRSEDEADYYCGAWDYSLSAYVFGGGTKLTVLG	Kd	1.14
#9104a-C5 (antibody, human IgG4 S228P, lambda, V domains shown, VH of #9104v-H19 with VL of #9104v-L23; full-length IgG, lambda) VH: EVQLLESGGGLVQPGGSLRLSCAASGFTFSNYYMSWVRQAPGKGLEWVSGIYYGSGVPYYADSVKGRFTISRDNSKNTLYLQMNSLRAEDTAVYYCARDTPGFDYWGQGTLVTVSS VL: QSVLTQPPSASGTPGQRVTISCTGSSSNIGNNAVNWYQQLPGTAPKLLIYYDQFRPSGVPDRFSGSKSGTSASLAISGLRSEDEADYYCGAWDYSLSAYVFGGGTKLTVLG	Kd	0.192
#9104a-C6 (antibody, human IgG4 S228P, lambda, V domains shown, VH of #9104v-H27 with VL of #9104v-L23; full-length IgG, lambda) VH: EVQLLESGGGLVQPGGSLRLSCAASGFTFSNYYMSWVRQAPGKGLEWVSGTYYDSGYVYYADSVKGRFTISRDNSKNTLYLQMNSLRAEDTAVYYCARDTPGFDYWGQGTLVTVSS VL: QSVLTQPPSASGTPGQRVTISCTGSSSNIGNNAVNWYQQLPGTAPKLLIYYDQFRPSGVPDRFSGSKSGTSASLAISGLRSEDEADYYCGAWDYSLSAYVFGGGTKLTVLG	Kd	0.928
